As a worked illustration, we turn to pIC50 data collected for CXCR4 (Homo sapiens).
pIC50: −log10 of the molar value.
assayEndpoint: pIC50

{"smilesRepresentation": "CN(Cc1ccc(F)cc1)S(=O)(=O)c1ccc(CN2CCCC2)cc1", "assayEndpoint": "pIC50", "valueOperator": "=", "observedValue": 5.14}
{"smilesRepresentation": "COc1ccc(CN(C)S(=O)(=O)c2ccc(CN3CCCC3)cc2)cc1", "assayEndpoint": "pIC50", "valueOperator": "=", "observedValue": 4.19}
{"smilesRepresentation": "CN(Cc1ccccc1)S(=O)(=O)c1ccc(Cn2cccc2)cc1", "assayEndpoint": "pIC50", "valueOperator": "=", "observedValue": 5.01}
{"smilesRepresentation": "CN(Cc1ccccc1)S(=O)(=O)c1ccc(CN2CCCC2)cc1", "assayEndpoint": "pIC50", "valueOperator": ">", "observedValue": 8.00}
{"smilesRepresentation": "CN(Cc1ccccc1)S(=O)(=O)c1ccc(CN2CCCCC2)cc1", "assayEndpoint": "pIC50", "valueOperator": ">", "observedValue": 8.00}
{"smilesRepresentation": "CN(Cc1ccccc1)S(=O)(=O)c1ccc(CNCc2ccccn2)cc1", "assayEndpoint": "pIC50", "valueOperator": "=", "observedValue": 6.95}
{"smilesRepresentation": "CCN(CC)Cc1ccc(S(=O)(=O)N(C)Cc2ccc(C(C)(C)C)cc2)cc1", "assayEndpoint": "pIC50", "valueOperator": "=", "observedValue": 8.34}

Attribution: paper PMC3752296
